Tested on: Pichia kudriavzevii
Test: Antimicrobial activity against Candida krusei ATCC 6258 after 18 to 20 hrs by microbroth dilution method
Type: functional
Where a SMILES comes first, the peptide text is derived from it. [ ]: non-standard residue; d: D form.
measurement.label: MIC (µM)
Record the value in µM, omitting the unit from your answer.

The cases that follow already have their MIC on record.
Prompt: Param item = "CC[C@H](C)[C@H](NC(=O)[C@H](CCCNC(=N)N)NC(=O)[C@@H]1C[C@@H](O)CN1C(=O)[C@@H](CC(C)C)NC(=O)[C@H](Cc1ccccc1)NC(=O)[C@H](CCCCN)NC(=O)[C@H](CO)NC(=O)[C@H](Cc1ccccc1)NC(=O)[C@H](Cc1c[nH]c2ccccc12)NC(=O)[C@@H]1CCCN1C(=O)[C@@H](NC(=O)[C@@H](N)Cc1ccccc1)C(C)C)C(=O)N[C@@H](CC(C)C)C(N)=O" ; retrieve measured MIC.
Completion: 1.56

Prompt: Param item = CC[C@H](C)[C@H](NC(=O)[C@H](CCCNC(=N)N)NC(=O)[C@H]1CCCN1C(=O)[C@@H](CC(C)C)NC(=O)[C@H](Cc1ccccc1)NC(=O)[C@H](CCCCN)NC(=O)[C@H](CO)NC(=O)[C@H](Cc1ccccc1)NC(=O)[C@H](Cc1c[nH]c2ccccc12)NC(=O)[C@@H]1CCCN1C(=O)[C@@H](NC(=O)[C@@H](N)Cc1ccccc1)C(C)C)C(=O)N[C@@H](CC(C)C)C(N)=O (H-FVPWFSKF[dL][dP]RIL-NH2) ; retrieve measured MIC.
Completion: 3.12

Prompt: Param item = CCCC[C@@H](NC(=O)[C@@H](CC(C)C)NC(=O)[C@H](Cc1ccccc1)NC(=O)[C@H](CCCCN)NC(=O)[C@H](CO)NC(=O)[C@H](Cc1ccccc1)NC(=O)[C@H](Cc1c[nH]c2ccccc12)NC(=O)[C@@H]1CCCN1C(=O)[C@@H](NC(=O)[C@@H](N)Cc1ccccc1)C(C)C)C(=O)N[C@@H](CCCNC(=N)N)C(=O)NC(C(=O)N[C@@H](CC(C)C)C(N)=O)[C@@H](C)CC (single isomer, unassigned) ; retrieve measured MIC.
Completion: 1.56

Prompt: Param item = CCCC[C@H](NC(=O)[C@@H](CC(C)C)NC(=O)[C@H](Cc1ccccc1)NC(=O)[C@H](CCCCN)NC(=O)[C@H](CO)NC(=O)[C@H](Cc1ccccc1)NC(=O)[C@H](Cc1c[nH]c2ccccc12)NC(=O)[C@@H]1CCCN1C(=O)[C@@H](NC(=O)[C@@H](N)Cc1ccccc1)C(C)C)C(=O)N[C@@H](CCCNC(=N)N)C(=O)NC(C(=O)N[C@@H](CC(C)C)C(N)=O)[C@@H](C)CC (single isomer, unassigned) ; retrieve measured MIC.
Completion: 3.12

# input for lookup
Prompt: Param item = CC[C@H](C)[C@H](NC(=O)[C@H](CCCNC(=N)N)NC(=O)[C@H](Cc1c[nH]c2ccccc12)NC(=O)[C@@H](CC(C)C)NC(=O)[C@H](Cc1ccccc1)NC(=O)[C@H](CCCCN)NC(=O)[C@H](CO)NC(=O)[C@H](Cc1ccccc1)NC(=O)[C@H](Cc1c[nH]c2ccccc12)NC(=O)[C@@H]1CCCN1C(=O)[C@@H](NC(=O)[C@@H](N)Cc1ccccc1)C(C)C)C(=O)N[C@@H](CC(C)C)C(N)=O (H-FVPWFSKF[dL]WRIL-NH2) ; retrieve measured MIC.
Completion: 3.12
